Some binders, each annotated with its measured residual hCCL1 (100 nM) Gi2 response, protocol #3, mAb 5 µg/mL.
# tested system: human CCR8 (human, UniProt P51685 1-355)
# procedure text: cell-based or functional assay
result type: residual hCCL1 (100 nM) Gi2 response, protocol #3, mAb 5 µg/mL (%)

binder: anti-CCR8 mAb 1-22 (antibody, human IgG1, kappa, V domains shown, Humanized mAb, human IgG1 / kappa) VH: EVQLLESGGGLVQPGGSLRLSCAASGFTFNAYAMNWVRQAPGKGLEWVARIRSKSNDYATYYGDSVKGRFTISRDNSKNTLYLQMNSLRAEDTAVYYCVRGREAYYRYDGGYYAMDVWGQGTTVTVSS VL: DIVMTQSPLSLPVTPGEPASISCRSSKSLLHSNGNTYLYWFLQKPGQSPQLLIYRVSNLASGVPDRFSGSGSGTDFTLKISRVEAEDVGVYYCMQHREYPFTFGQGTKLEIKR
unit string: %
test result: 33

binder: anti-CCR8 mAb 1-1 (antibody, V domains shown, Murine hybridoma mAb) VH: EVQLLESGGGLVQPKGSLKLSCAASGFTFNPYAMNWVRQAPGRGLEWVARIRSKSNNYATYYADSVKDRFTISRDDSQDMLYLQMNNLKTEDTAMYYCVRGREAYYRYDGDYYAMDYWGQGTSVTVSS VL: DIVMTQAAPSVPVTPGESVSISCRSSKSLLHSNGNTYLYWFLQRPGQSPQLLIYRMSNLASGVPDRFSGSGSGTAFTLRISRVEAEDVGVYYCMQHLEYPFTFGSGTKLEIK
unit string: %
test result: 49

binder: anti-CCR8 mAb 1-5 (antibody, V domains shown, Murine hybridoma mAb) VH: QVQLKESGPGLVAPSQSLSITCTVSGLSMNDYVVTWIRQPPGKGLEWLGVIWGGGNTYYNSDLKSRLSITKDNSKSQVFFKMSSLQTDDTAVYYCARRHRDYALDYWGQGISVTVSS VL: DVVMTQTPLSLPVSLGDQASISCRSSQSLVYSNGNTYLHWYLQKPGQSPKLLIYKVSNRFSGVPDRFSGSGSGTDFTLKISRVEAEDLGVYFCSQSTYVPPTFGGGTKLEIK
unit string: %
test result: 75
